Hello, the source for this data is PubChem BioAssay (NCATS), in case you need it.

system: PC15; assay: qHTS profiling for inhibitors of Plasmodium falciparum proliferation (AID 504749); also: nearly all actives have a fitted effect of over 60% in size; details: P. falciparum in erythrocytes, SYBR Green DNA, 72 h; series mostly up to 12.8 µM
Results filed as inconclusive are left out. The source made the active and inactive calls. Calls follow the shape of the dose curve; as a rule, active = well fitted inhibition curve with a large enough effect; inconclusive = small, poorly fitted or top-dose-only effect; inactive = flat fitted curve, though single readings scatter.
Thanks in advance; please answer with one of these: 1 (yes) = active, 0 (no) = inactive

Completed entries (count: 3):
INSERT INTO assay_data (compound, label_class) VALUES
  ('O=C(O)[C@@H]1CCCN1', '0 (no)'),
  ('CCN(CC)CCOC(=O)[C@@H](Cc1cccc2ccccc12)C[C@@H]1CCCO1', '0 (no)'),
  ('Cc1onc(-c2ccccc2Cl)c1C(=O)N[C@H]1C(=O)N2[C@H]1SC(C)(C)[C@H]2C(=O)O', '0 (no)');

Incoming: Recorded call for CS(=O)(=O)c1ccc([C@H](O)[C@H](CO)NC(=O)C(Cl)Cl)cc1 ?
Outgoing: 0 (no)

Incoming: Recorded call for C[C@H](O)Cn1cnc2c1c(=O)n(C)c(=O)n2C ?
Outgoing: 0 (no)

Incoming: Recorded call for CCC(=O)O[C@@H]1[C@H](C)O[C@H](O[C@H]2[C@@H](N(C)C)[C@H](O)[C@@H](O[C@@H]3[C@@H](CC=O)C[C@@H](C)[C@@H](O)/C=C\C=C/C[C@@H](C)OC(=O)C[C@@H](OC(=O)CC)[C@H]3OC)O[C@H]2C)C[C@]1(C)O ?
Outgoing: 0 (no)

Incoming: Recorded call for COc1ccc(C[C@@](C)(N)C(=O)O)cc1OC ?
Outgoing: 0 (no)

###

system: CP201; test: qHTS profiling for inhibitors of Plasmodium falciparum proliferation (AID 504749); also: nearly all actives have a fitted effect of over 60% in size; settings: P. falciparum in erythrocytes, SYBR Green DNA, 72 h; series mostly up to 12.8 µM
Inconclusive results are not listed. Activity calls are given as the source filed them. Calls come from the whole dose curve; as a rule, active = well fitted inhibition curve with a large enough effect; inconclusive = small, poorly fitted or top-dose-only effect; inactive = flat fitted curve, though single readings scatter.
Measure name: outcome

INSERT INTO assay_data (structure, measure_name, reading) VALUES
  ('CO[C@H]1[C@H](O[C@H]2O[C@@H](C)[C@@H](O[C@@H]3C[C@](C)(O)[C@H](O)[C@H](C)O3)[C@@H](N(C)C)[C@@H]2O)[C@@H](CC=O)C[C@@H](C)[C@@H](O[C@H]2CC[C@H](N(C)C)[C@H](C)O2)/C=C\C=C/C[C@@H](C)OC(=O)C[C@H]1O', 'outcome', 'inactive'),
  ('NC[C@@H]1O[C@@H](O[C@H]2[C@H](O)[C@H](O[C@@H]3O[C@H](CO)[C@@H](O)[C@H](N)[C@@H]3O)[C@@H](N)C[C@H]2N)[C@H](N)C[C@@H]1O', 'outcome', 'inactive');

###

Test system: CP215
Experiment: qHTS profiling for inhibitors of Plasmodium falciparum proliferation (AID 504749); also: nearly all actives have a fitted effect of over 60% in size
Conditions: P. falciparum in erythrocytes, SYBR Green DNA, 72 h; series mostly up to 12.8 µM
Protocol: NIH National Institute of Allergy and Infectious Diseases [NIAID] NIH Chemical Genomics Center [NCGC] […] Because mature erythrocytes lack DNA, only Plasmodium-derived DNA is detected. NCGC Assay Protocol Summary: The SYBR Green viability assay was adapted from a method described previously (Plouffe et al., 2008). […] The following morning, fluorescence intensity at 485(14) nm excitation and 535(25) nm emission wavelengths was measured on an EnVision (Perkin Elmer) plate reader. […]
Results filed as inconclusive are left out. Calls of active or inactive are those of the source. Calls follow the shape of the dose curve; as a rule, active = well fitted inhibition curve with a large enough effect; inconclusive = small, poorly fitted or top-dose-only effect; inactive = flat fitted curve, though single readings scatter.
Thanks in advance; please answer with one of these: active, inactive

Completed entries (count: 3):
INSERT INTO assay_data (compound, label_class) VALUES
  ('CCCC[C@H](CC)CN1CN(C[C@@H](CC)CCCC)CC(C)(N)C1', 'inactive'),
  ('CN(C)CCn1nnnc1SCC1=C(C(=O)O)N2C(=O)[C@@H](NC(=O)Cc3csc(N)n3)[C@@H]2SC1', 'inactive'),
  ('COc1cc(N[C@@H](C)CCCN)c2ncccc2c1', 'active');

Incoming: Recorded call for COc1ccc(-c2cc(=O)c3c(O)cc(O[C@H]4OC(COC5OC(C)C(O)C(O)[C@H]5O)C(O)C(O)C4O)cc3o2)cc1O (stereo not given in full) ?
Outgoing: inactive

Incoming: Recorded call for NC(=O)N[C@H]1NC(=O)NC1=O ?
Outgoing: inactive
